Numbers sourced from patent US20240270762A1.

Test system: N. gonorrhoeae ATCC 49226
Test: Liquid broth MIC in Fastidious broth
Conditions: Neisseria gonorrhoeae, ATCC49226, read-out: Minimum Inhibitory Concentration (MIC), N. gonorrhoeae ATCC 49226
experimental_endpoint: MIC

CS(=O)(=O)N1CCN(C(=O)NC(C(=O)N[C@H]2Cc3cccc(C(=O)O)c3OB2O)c2ccc(P(=O)(O)O)c(F)c2)C1=O (stereo partly drawn) [Example 12] ... < 1 µg/mL
O=C(NCCN1CCN(C(=O)N[C@@H](C(=O)N[C@H]2Cc3ccc(F)c(C(=O)O)c3OB2O)c2cc(F)c(O)c(O)c2Cl)C(=O)C1=O)Nc1cccnc1 [Example 222] ... 16 to 32 µg/mL

Turning to the following compound.
Input line: So what does the record say about MIC for O=C(NCCN1CCN(C(=O)NC(C(=O)N[C@H]2Cc3ccc(F)c(C(=O)O)c3OB2O)c2cc(F)c(O)c(O)c2Cl)C1=O)c1ccc(O)cc1 (stereo partly drawn) [Example 243] ?
Output line: 16 to 32 µg/mL

* * *

Biological target: PBP3 from Pseudomonas aeruginosa (PAO1) (Pseudomonas aeruginosa, UniProt G3XD46)
Sequence (G3XD46 whole entry): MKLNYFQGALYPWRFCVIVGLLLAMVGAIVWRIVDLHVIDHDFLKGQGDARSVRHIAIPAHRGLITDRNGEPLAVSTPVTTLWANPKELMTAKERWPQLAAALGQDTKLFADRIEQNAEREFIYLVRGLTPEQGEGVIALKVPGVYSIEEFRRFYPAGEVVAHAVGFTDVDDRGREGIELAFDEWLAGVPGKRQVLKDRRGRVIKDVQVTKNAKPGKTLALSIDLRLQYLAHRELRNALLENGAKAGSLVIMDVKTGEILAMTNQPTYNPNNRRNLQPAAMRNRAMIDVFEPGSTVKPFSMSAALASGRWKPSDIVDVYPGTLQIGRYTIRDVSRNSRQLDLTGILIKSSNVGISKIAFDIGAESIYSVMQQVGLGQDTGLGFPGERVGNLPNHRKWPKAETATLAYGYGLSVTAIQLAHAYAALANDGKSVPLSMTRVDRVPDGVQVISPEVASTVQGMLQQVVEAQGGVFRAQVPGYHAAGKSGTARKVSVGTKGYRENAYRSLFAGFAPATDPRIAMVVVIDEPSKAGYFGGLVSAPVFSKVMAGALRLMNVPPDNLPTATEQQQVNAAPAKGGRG
Experiment: Bocillin-FL fluorescence polarization competition binding, P. aeruginosa PBP3
Details: Binding affinity to P. aeruginosa PBP3; fluorescence polarization competition binding assay using Bocillin-FL; read-out: P. aeruginosa PBP3 Potency
pIC50: −log10 of the molar value.
Listing: pIC50 of selected compounds

Known results for compounds:
O=C(NCCCN1CCN(C(=O)NC(C(=O)N[C@H]2Cc3ccc(F)c(C(=O)O)c3OB2O)c2cc(F)c(O)c(O)c2Cl)C(=O)C1=O)c1ccc(F)c(O)c1Cl (some centres unmarked) ... > 5.00
O=C(NCCCS(=O)(=O)N1CCN(C(=O)NC(C(=O)N[C@H]2Cc3ccc(F)c(C(=O)O)c3OB2O)c2cc(F)c(O)c(O)c2Cl)C1=O)c1ccccc1 (some centres unmarked) ... > 5.00

Input line: So what does the record say about pIC50 for CCN1CCN(C(=O)NC(C(=O)N[C@H]2Cc3cccc(C(=O)O)c3OB2O)c2cccc(CP(=O)(O)O)c2)C(=O)C1=O (some centres unmarked) ?
Output line: > 5.00

Input line: So what does the record say about pIC50 for CC(=O)N1CCC[C@H]1C(=O)NC(C(=O)N[C@H]1Cc2cccc(C(=O)O)c2OB1O)c1ccc(P(=O)(O)O)cc1 (some centres unmarked) ?
Output line: 3.60 to 4.30

Input line: So what does the record say about pIC50 for O=C(O)c1c(F)ccc2c1OB(O)[C@@H](NC(=O)[C@H](NC(=O)N1CCN(C3CCN(C(=O)c4cc(O)ccc4F)CC3)C1=O)c1cc(F)c(O)c(O)c1Cl)C2 (single isomer, unassigned) ?
Output line: > 5.00

Input line: So what does the record say about pIC50 for O=C(NCCCN1CCN(C(=O)NC(C(=O)N[C@H]2Cc3ccc(F)c(C(=O)O)c3OB2O)c2cc(F)c(O)c(O)c2Cl)C(=O)C1=O)c1ccc(O)c(F)c1 (some centres unmarked) ?
Output line: > 5.00

Input line: So what does the record say about pIC50 for O=C(CN1CCN(C(=O)NC(C(=O)N[C@H]2Cc3ccc(F)c(C(=O)O)c3OB2O)c2cc(F)c(O)c(O)c2Cl)C(=O)C1=O)Nc1cccc(O)c1 (some centres unmarked) ?
Output line: > 5.00

Input line: So what does the record say about pIC50 for O=C(NCCN1CCN(C(=O)NC(C(=O)N[C@H]2Cc3ccc(F)c(C(=O)O)c3OB2O)c2cc(F)c(O)c(O)c2Cl)C1=O)Nc1ccncc1 (some centres unmarked) ?
Output line: > 5.00

Input line: So what does the record say about pIC50 for Cn1cccc(C(=O)N[C@H](C(=O)N[C@H]2Cc3cccc(C(=O)O)c3OB2O)c2ccc(P(=O)(O)O)cc2)c1=O (single isomer, unassigned) ?
Output line: 3.60 to 4.30

Input line: So what does the record say about pIC50 for CCN1CCN(C(=O)NC(C(=O)N[C@H]2Cc3cccc(C(=O)O)c3OB2O)c2c(F)cc(P(=O)(O)O)cc2F)C(=O)C1=O (some centres unmarked) ?
Output line: > 5.00

Input line: So what does the record say about pIC50 for O=C(O)c1c(F)ccc2c1OB(O)[C@@H](NC(=O)C(NC(=O)N1CCN(Cc3ccc(O)c(O)c3Cl)C1=O)c1ccc(P(=O)(O)O)cc1)C2 (some centres unmarked) ?
Output line: > 5.00

* * *

Target: A. baumannii PBP2 (Acinetobacter baumannii)
Sequence (D0C8Z9 whole entry): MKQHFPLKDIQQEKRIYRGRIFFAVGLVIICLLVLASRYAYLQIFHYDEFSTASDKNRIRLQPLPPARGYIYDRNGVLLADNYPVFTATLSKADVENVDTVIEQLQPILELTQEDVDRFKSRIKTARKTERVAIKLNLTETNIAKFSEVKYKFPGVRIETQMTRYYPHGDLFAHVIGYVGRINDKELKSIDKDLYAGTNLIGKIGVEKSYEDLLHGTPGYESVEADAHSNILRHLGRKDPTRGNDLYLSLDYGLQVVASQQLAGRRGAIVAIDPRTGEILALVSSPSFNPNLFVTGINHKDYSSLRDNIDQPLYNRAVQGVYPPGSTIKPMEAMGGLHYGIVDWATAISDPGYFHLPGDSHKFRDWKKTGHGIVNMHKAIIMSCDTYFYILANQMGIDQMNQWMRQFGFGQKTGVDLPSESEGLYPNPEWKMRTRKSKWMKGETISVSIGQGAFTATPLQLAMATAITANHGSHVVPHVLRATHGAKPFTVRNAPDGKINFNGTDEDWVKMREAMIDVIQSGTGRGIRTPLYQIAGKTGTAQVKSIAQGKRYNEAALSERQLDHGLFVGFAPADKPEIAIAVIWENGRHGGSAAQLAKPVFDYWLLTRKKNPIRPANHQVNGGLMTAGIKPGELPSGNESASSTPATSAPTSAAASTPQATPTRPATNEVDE
Assay: Bocillin-FL competition binding via gel filtration, A. baumannii PBP2
Listing: EC50 of selected compounds

Known results for compounds:
O=C(O)c1c(F)ccc2c1OB(O)[C@@H](NC(=O)[C@H](NC(=O)N1CCN(C3CCN(C(=O)c4c(F)ccc(O)c4Cl)CC3)C1=O)c1cc(F)c(O)c(O)c1Cl)C2 (single isomer, unassigned) [Example 440] ... < 10 µM
O=C(NCCS(=O)(=O)N1CCN(C(=O)N[C@@H](C(=O)N[C@H]2Cc3ccc(F)c(C(=O)O)c3OB2O)c2cc(F)c(O)c(O)c2Cl)C1=O)c1ccc(O)cc1 [Example 287] ... < 10 µM
O=C(O)c1c(F)ccc2c1OB(O)[C@@H](NC(=O)C(NC(=O)N1CCN(C3CCN(S(=O)(=O)c4cc(O)cc(O)c4)CC3)C1=O)c1cc(F)c(O)c(O)c1Cl)C2 (stereo partly shown) [Example 600] ... < 10 µM
O=C(O)c1c(F)ccc2c1OB(O)[C@@H](NC(=O)[C@H](NC(=O)N1CCN(C3CCN(S(=O)(=O)c4ccc5[nH]nnc5c4)CC3)C1=O)c1cc(F)c(O)c(O)c1Cl)C2 (single isomer, unassigned) [Example 621] ... < 10 µM
O=C(NCCN1CCN(C(=O)NC(C(=O)N[C@H]2Cc3ccc(F)c(C(=O)O)c3OB2O)c2cc(F)c(O)c(O)c2Cl)C(=O)C1=O)c1ccc(O)cc1 (stereo partly shown) [Example 214] ... 10 to 50 µM
O=C(NCCCN1CCN(C(=O)N[C@@H](C(=O)N[C@H]2Cc3ccc(F)c(C(=O)O)c3OB2O)c2cc(F)c(O)c(O)c2Cl)C(=O)C1=O)c1c(F)cc(O)cc1F (racemic) [Example 420] ... 10 to 50 µM
O=C(O)c1c(F)ccc2c1OB(O)[C@@H](NC(=O)[C@H](NC(=O)N1CCN(C3CCN(C(=O)c4ccc(O)cc4)CC3)C1=O)c1cc(F)c(O)c(O)c1Cl)C2 (single isomer, unassigned) [Example 463] ... < 10 µM
O=C(NCCCN1CCN(C(=O)NC(C(=O)N[C@H]2Cc3ccc(F)c(C(=O)O)c3OB2O)c2cc(F)c(O)c(O)c2Cl)C(=O)C1=O)c1cccc(O)c1 (stereo partly shown) [Example 204] ... 10 to 50 µM
O=C(NCCCN1CCN(C(=O)NC(C(=O)N[C@H]2Cc3ccc(F)c(C(=O)O)c3OB2O)c2cc(F)c(O)c(O)c2Cl)C(=O)C1=O)c1cc(F)ncc1F (mixture of isomers) [Example 405] ... 10 to 50 µM

Turning to the following compound.
Input line: So what does the record say about EC50 for O=C(NCCN1CCN(C(=O)NC(C(=O)N[C@H]2Cc3ccc(F)c(C(=O)O)c3OB2O)c2cc(F)c(O)c(O)c2Cl)C(=O)C1=O)Nc1ccc(O)cc1 (stereo partly shown) [Example 219] ?
Output line: 10 to 50 µM

* * *

System: A. baumannii 1258916
Test: microbe, parasite or virus in culture
Assay type: cell-based, Acinetobacter baumannii
Conditions: Acinetobacter baumannii, 1258916, read-out: MIC, A. baumannii 1258916
experimental_endpoint: MIC

O=C(NCCS(=O)(=O)N1CCN(C(=O)NC(C(=O)N[C@H]2Cc3ccc(F)c(C(=O)O)c3OB2O)c2cc(F)c(O)c(O)c2Cl)C1=O)Nc1cccc(O)c1 (some centres unmarked) ... < 1 µg/mL
CN(CCN1CCN(C(=O)N[C@@H](C(=O)N[C@H]2Cc3ccc(F)c(C(=O)O)c3OB2O)c2cc(F)c(O)c(O)c2Cl)C(=O)C1=O)Cc1nccs1 ... < 1 µg/mL
O=C(O)c1c(F)ccc2c1OB(O)[C@@H](NC(=O)[C@H](NC(=O)N1CCN(C3CCN(C(=O)Nc4ccc(F)c(O)c4)CC3)C1=O)c1cc(F)c(O)c(O)c1Cl)C2 (single isomer, unassigned) ... < 1 µg/mL
O=C(NCCN1CCN(C(=O)NC(C(=O)N[C@H]2Cc3ccc(F)c(C(=O)O)c3OB2O)c2cc(F)c(O)c(O)c2Cl)C1=O)c1nccs1 (some centres unmarked) ... < 1 µg/mL
O=C(NCCN1CCN(C(=O)N[C@@H](C(=O)N[C@H]2Cc3ccc(F)c(C(=O)O)c3OB2O)c2cc(F)c(O)c(O)c2Cl)C1=O)Nc1ccc(O)cc1 ... < 1 µg/mL
O=C(NCCCN1CCN(C(=O)NC(C(=O)N[C@H]2Cc3ccc(F)c(C(=O)O)c3OB2O)c2cc(F)c(O)c(O)c2Cl)C1=O)c1cccnc1 (some centres unmarked) ... < 1 µg/mL

Turning to the following compound.
Input line: Query for A. baumannii 1258916: what MIC does the record show for O=C(O)c1c(F)ccc2c1OB(O)[C@@H](NC(=O)[C@H](NC(=O)N1CCN(C3CCN(C(=O)Nc4cc(O)ccc4F)CC3)C1=O)c1cc(F)c(O)c(O)c1Cl)C2 (single isomer, unassigned) ?
Output line: < 1 µg/mL
